Molecular target: NAD-dependent protein deacetylase sirtuin-2 (Homo sapiens) (UniProt Q8IXJ6)
Sequence (whole entry): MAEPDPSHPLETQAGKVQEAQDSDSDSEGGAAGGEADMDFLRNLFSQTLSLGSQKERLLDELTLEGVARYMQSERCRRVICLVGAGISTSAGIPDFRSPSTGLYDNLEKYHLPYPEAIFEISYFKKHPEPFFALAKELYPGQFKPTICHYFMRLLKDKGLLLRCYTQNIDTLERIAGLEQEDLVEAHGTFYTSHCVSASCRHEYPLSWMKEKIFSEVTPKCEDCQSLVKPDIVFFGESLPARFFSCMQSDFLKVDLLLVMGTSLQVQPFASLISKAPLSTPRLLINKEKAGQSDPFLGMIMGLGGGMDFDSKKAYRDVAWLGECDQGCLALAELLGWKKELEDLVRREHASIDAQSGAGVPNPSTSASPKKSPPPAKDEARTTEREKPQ
Test: Inhibition of recombinant N-terminal tagged human SIRT2 expressed in Escherichia coli at 100 uM using Fluor De Lys SIRT2 as substrate preincubated for 30 mins followed by substrate addition and measured after 1 hr in presence of NAD+ by fluorescence assay relative to control
Details: time 90.0 min
measurement.label: inhibition (%)

Solved cases (3 shown):
1) O=C(c1cccc(Oc2ccccc2)c1)N1CCc2ccccc2C1: 10.8
2) Cc1ccc(C(=O)Nc2ccc(S(=O)(=O)O)c3cc(S(=O)(=O)O)cc(S(=O)(=O)O)c23)cc1NC(=O)c1cccc(NC(=O)Nc2cccc(C(=O)Nc3cc(C(=O)Nc4ccc(S(=O)(=O)O)c5cc(S(=O)(=O)O)cc(S(=O)(=O)O)c45)ccc3C)c2)c1: 98.4
3) CC(=O)c1ccc(NC(=O)c2cccc(Oc3ccccc3)c2)cc1: 11.1

(a) O=C(Nc1ccc2ccccc2c1)c1cccc(Oc2ncccn2)c1
(b) ON=C(c1cccc(Oc2ccccc2)c1)N1CCc2ccccc2C1
Query string: Pick one, a or b : lowest reported inhibition. When you have decided, please share the label of that item.
Result string: a

From: ChEMBL document CHEMBL4680326
